Tested on: C. albicans
method: Minimum inhibitory concentration for fungi in presence of serum, C. albicans (Table VI)
Format: cell-based
condition_description: Candida albicans; Sabouraud nutrient broth + 10% bovine serum, 28°C, 48 hours
measured_property: MIC (µg/mL)
I only need the number, in µg/mL, no unit after it.

Query block: Tell me the measured MIC of CCCCCCCCN1CCN(CCCCCCN2CCN(C(C)C(=Cc3ccccc3)Cc3ccccc3)CC2)CC1 (centres unmarked) , please.
Result block: 1020

Query block: And for CC(N1CCN(CCN2CCN(CCc3ccccc3)CC2)CC1)C(O)(Cc1ccccc1)Cc1ccccc1 (centres unmarked) ?
Result block: 128

Query block: Same lookup for CC(C(=Cc1ccccc1)Cc1ccccc1)N1CCN(CCN2CCN(C)CC2)CC1 (centres unmarked) , please.
Result block: 32

Query block: Another compound: CC(N1CCN(CCN(C)C)CC1)C(O)(Cc1ccccc1)Cc1ccccc1 (centres unmarked)
Result block: 64

Query block: # repeat for CC(C(=Cc1ccccc1)Cc1ccccc1)N1CCN(CCN2CCCCC2)CC1 (centres unmarked)
Result block: 256

Query block: Thanks! And CC(N1CCN(Cc2ccccn2)CC1)C(O)(Cc1ccccc1)Cc1ccccc1 (centres unmarked) ?
Result block: 512

Query block: Now give it for CC(C(=Cc1ccccc1)Cc1ccccc1)N1CCN(CCN2CCCC2)CC1 (centres unmarked) too.
Result block: 128

* * *

Assign MIC to each entry below.
System: A. niger
method: Minimum inhibitory concentration for fungi in presence of serum, A. niger (Table VI)
Format: cell-based
condition_description: Aspergillus niger; Sabouraud nutrient broth + 10% bovine serum, 28°C, 48 hours
Write it as a number; the unit µg/mL goes unstated.

Query block: What MIC value was documented for this compound, CNCCCCCCN1CCN(C(C)C(=Cc2ccccc2)Cc2ccccc2)CC1 (stereo not drawn) ?
Result block: 8

Query block: Then this compound: CC(N1CCN(CCCN2CCCCC2)CC1)C(O)(Cc1ccccc1)Cc1ccccc1 (stereo not drawn)
Result block: 32

Query block: Try the compound CCCCCCCCN1CCN(CCCCCCN2CCN(C(C)C(=Cc3ccccc3)Cc3ccccc3)CC2)CC1 (stereo not drawn)
Result block: 512

Query block: Now the same for CC(C(=Cc1ccccc1)Cc1ccccc1)N1CCN(CCN2CCN(CCc3ccccc3)CC2)CC1 (stereo not drawn)
Result block: 128

Query block: Then this compound: CC(N1CCN(Cc2ccncc2)CC1)C(O)(Cc1ccccc1)Cc1ccccc1 (stereo not drawn)
Result block: 128

Query block: What would you report for CC(C(=Cc1ccccc1)Cc1ccccc1)N1CCN(CCN2CCCCC2)CC1 (stereo not drawn) ?
Result block: 32

Query block: Param item: CC(C(=Cc1ccccc1)Cc1ccccc1)N1CCN(CCN(C)C)CC1 (stereo not drawn)
Result block: 32

Query block: Entry to check: Cc1cccc(CC(O)(Cc2cccc(C)c2)C(C)N2CCN(C)CC2)c1 (stereo not drawn)
Result block: 128

* * *

Test system: A. niger
method: Minimum inhibitory concentration for fungi in presence of serum, A. niger (Table VI)
Type: cell-based
condition_description: Aspergillus niger; Sabouraud nutrient broth + 10% bovine serum, 28°C, 48 hours
measured_property: MIC (µg/mL)
Report the figure in µg/mL without appending any unit label.

Query block: Requested field: MIC. Item: CC(N1CCN(CCCCCCN2CCCCC2)CC1)C(O)(Cc1ccccc1)Cc1ccccc1 (centres unmarked)
Result block: 8

Query block: Next compound up: CC1CCN(CCN2CCN(C(C)C(=Cc3ccccc3)Cc3ccccc3)CC2)CC1 (centres unmarked)
Result block: 128

Query block: And what about the compound Cc1cccc(CC(O)(Cc2cccc(C)c2)C(C)N2CCN(CCN3CCCCC3)CC2)c1 (centres unmarked) ?
Result block: 128

Query block: Can you check CC(C(=Cc1ccc(Cl)cc1)Cc1ccc(Cl)cc1)N1CCN(CCN2CCN(C)CC2)CC1 (centres unmarked) next?
Result block: 32

Query block: Try this compound too: `OC(CCN1CCN(CCN2CCCCC2)CC1)(Cc1ccccc1)Cc1ccccc1`
Result block: 8

Query block: Another compound to check: CC(N1CCN(CCN2CCOCC2)CC1)C(O)(Cc1ccccc1)Cc1ccccc1 (centres unmarked)
Result block: 256

Query block: Entry to check: CC(C(=Cc1ccccc1)Cc1ccccc1)N1CCN(CCN2CCN(C)CC2)CC1 (centres unmarked)
Result block: 8

Query block: // same read-out, input: CC(N1CCN(CCN2CCN(CCc3ccccc3)CC2)CC1)C(O)(Cc1ccccc1)Cc1ccccc1 (centres unmarked)
Result block: 64

Query block: Quick one: CC(N1CCN(C)CC1)C(O)(Cc1ccc(Cl)cc1)Cc1ccc(Cl)cc1 (centres unmarked)
Result block: 256

Query block: Now this one: CC(c1ccccc1)N1CCN(CCN2CCN(C(C)C(O)(Cc3ccccc3)Cc3ccccc3)CC2)CC1 (centres unmarked)
Result block: 256

Query block: Cool, now CCCCCCCC[N+](C)(C)CCN1CCN(C(C)C(=Cc2ccccc2)Cc2ccccc2)CC1 (centres unmarked)
Result block: 64

Query block: How about CC(C(=Cc1ccccc1Cl)Cc1ccccc1Cl)N1CCN(CCN2CCN(C)CC2)CC1 (centres unmarked) ?
Result block: 128

Query block: Lookup `CN1CCN(CCCCCCN2CCN(CCC(=Cc3ccccc3)Cc3ccccc3)CC2)CC1`
Result block: 8

Query block: Another compound: CNCCN1CCN(C(C)C(=Cc2ccccc2)Cc2ccccc2)CC1 (centres unmarked)
Result block: 64

Query block: # iterate: CC(N1CCN(CCN2CCCC2)CC1)C(O)(Cc1ccccc1)Cc1ccccc1 (centres unmarked)
Result block: 128

Query block: Moving on to the next compound: `OC(Cc1ccccc1)(Cc1ccccc1)CN1CCN(CCN2CCCCC2)CC1`
Result block: 64

Query block: Record: CC(N1CCN(CCN2CCN(C)CC2)CC1)C(O)(Cc1ccccc1)Cc1ccccc1 (centres unmarked)
Result block: 16

Query block: Follow-up item: CC(N1CCN(CCO)CC1)C(O)(Cc1ccc(Cl)cc1)Cc1ccc(Cl)cc1 (centres unmarked)
Result block: 64

Numbers sourced from patent US3947411A.
